# assay_notes: physchem
# condition_summary: pH 5.3, Solubility Conc.
Positions of bridges follow the written chain, without caps; N, C: chain ends. Non-standard residues stand in square brackets, D forms with d. Residues, ends and D or L forms follow the SMILES beside them. Groups on a side chain read outwards from the residue. *: point of attachment. Lys(CH2CO2H)2 = N[C@@H](CCCCN(CC(=O)O)CC(=O)O)C(=O)O; X1 = O=C(O)CCCCCCCCCCCCCCCCC(=O)NCCOCCOCCN*; C16 diacid = O=C(O)CCCCCCCCCCCCCCC(=O)*; Orn = NCCC[C@H](N)C(=O)O; Dab = NCC[C@H](N)C(=O)O; AEEA = NCCOCCOCC(=O)O
The entries below are paired with their reported solubility.
Answer with a number only, understood to be in µM.

These recorded examples may help you get a feel for the data.
CC(=O)N[C@H]1CCNC(=O)C[C@@H](C(=O)N2CCC[C@H]2C(=O)N2CCC[C@H]2C(=O)N[C@@H](CCCNC(=N)N)C(=O)N[C@@H](CCC(=O)O)C(=O)N[C@@H](CCCCN(CC(=O)O)CC(=O)O)C(=O)N[C@@H](CO)C(=O)N[C@@H](CO)C(=O)NCCOCCOCCNC(=O)CCCCCCCCCCCCCCCCC(=O)O)NC(=O)[C@H](Cc2c[nH]c3ccccc23)NC(=O)[C@H](CCCNC(=N)N)NC(=O)[C@@H](Cc2ccccc2)NC(=O)[C@H](Cc2c[nH]cn2)NC1=O [Example 9] (Ac-[Dab]H[dF]RWDPPRE[Lys(CH2CO2H)2]SS-X1; lactam 1-6)	40
CC(=O)N[C@H]1CCC(=O)NCCC[C@@H](C(=O)N2CCC[C@H]2C(=O)N2CCC[C@H]2C(=O)N[C@@H](CCCNC(=N)N)C(=O)N[C@@H](CC(=O)O)C(=O)N[C@@H](CCCCN(CC(=O)O)CC(=O)O)C(=O)N[C@@H](CCCCNC(=O)COCCOCCNC(=O)CCCCCCCCCCCCCCC(=O)O)C(N)=O)NC(=O)[C@H](Cc2c[nH]c3ccccc23)NC(=O)[C@H](CCCNC(=N)N)NC(=O)[C@@H](Cc2ccccc2)NC(=O)[C@H](Cc2cnc[nH]2)NC1=O [Example 18] (Ac-EH[dF]RW[Orn]PPRD[Lys(CH2CO2H)2]K([AEEA-C16 diacid])-NH2; lactam 1-6)	193

Kindly consider the entry below.
solubility measured on CC(=O)N[C@H]1CCCNC(=O)C[C@@H](C(=O)N2CCC[C@H]2C(=O)N2CCC[C@H]2C(=O)N[C@@H](Cc2c[nH]cn2)C(=O)N[C@@H](CCC(=O)O)C(=O)N[C@@H](CCCCN(CC(=O)O)CC(=O)O)C(=O)N[C@@H](CCCCNC(=O)COCCOCCNC(=O)CCCCCCCCCCCCCCC(=O)O)C(N)=O)NC(=O)[C@H](Cc2c[nH]c3ccccc23)NC(=O)[C@H](CCCNC(=N)N)NC(=O)[C@@H](Cc2ccccc2)NC(=O)[C@H](Cc2c[nH]cn2)NC1=O [Example 51] (Ac-[Orn]H[dF]RWDPPHE[Lys(CH2CO2H)2]K([AEEA-C16 diacid])-NH2; lactam 1-6) = 204
